# Test system: HT-29 cells
# Protocol Details: CellTiter-Glo luminescent cell viability assay with HT-29 cells (72h incubation)
# Type: cell-based, human
# Details: Homo sapiens, HT-29, HT29 cells, read-out: CTG HT29
Assay Readout: IC50

Example cases with answers are listed next.
CC(=O)N[C@H]1CCCC(=O)N2CCCC(CCOc3ccc(C)c(c3)CNC(=O)[C@H](CCc3ccccc3)NC1=O)C2 (stereo partly drawn): < 100 nM
CC(=O)N[C@H]1CC(=O)N2CCCC(CCOc3ccc(C)c(c3)CNC(=O)C(c3cnn(C)c3)NC1=O)C2 (stereo partly drawn): < 100 nM
Cc1ccc2cc1CNC(=O)[C@H](CCc1ccccc1)NC(=O)[C@@H](NS(=O)(=O)CCCc1ccccc1)CC(=O)N1CCCC(CCO2)C1 (stereo partly drawn): < 100 nM
Cc1ccc2cc1CNC(=O)[C@H](CCc1ccccc1)NC(=O)[C@@H](NC(=O)OCc1ccccc1)CC(=O)N1CCCC3(CC(C3)O2)C1: 100 to 500 nM

Prompt line: Determine its reported IC50: Cc1ccc2cc1CNC(=O)[C@H](CCc1ccccc1)NC(=O)[C@@H](NS(=O)(=O)CCc1ccccc1)CC(=O)N1CCCC(CCO2)C1 (stereo partly drawn)
Response line: < 100 nM

Prompt line: Report IC50, nothing else, for this molecule: Cc1cccc(CC(=O)N[C@H]2CC(=O)N3CCCC(CCOc4ccc(C)c(c4)CNC(=O)[C@H](CCc4ccccc4)NC2=O)C3)c1 (stereo partly drawn)
Response line: < 100 nM

---

# Test system: hPMBC
# Protocol Details: Chymotrypsin-like ProteasomeGlo assay in hPBMC
# Assay type: cell-based
# Details: Homo sapiens; read-out: Pglo hPBMC
pIC50: −log10 of the molar value.
Assay Readout: pIC50

As a guide, the following entries are already answered.
Cc1ccc2cc1CNC(=O)[C@H](C)NC(=O)CCC(=O)N1CCCC(CCO2)C1 (stereo partly shown) [Compound 78]: 6.00 to 6.30
Cc1cc2cc(c1C)CNC(=O)C(c1cnn(C)c1)NC(=O)CCC(=O)N1CCCC(CCO2)C1 (stereo not shown) [Compound 355]: > 7.00
Cc1ccc2cc1CNC(=O)[C@H](CCc1ccccc1)NC(=O)[C@@H](NC(=O)[C@@H](N)Cc1ccccc1)CC(=O)N1CCCC(CCO2)C1 (stereo partly shown) [Compound 179]: > 7.00

Prompt line: // Input: Cc1ccc2cc1CNC(=O)C(CCc1ccncc1)NC(=O)[C@@H](NC(=O)Cc1ccc(N)cc1F)CC(=O)N1CCCC(CCO2)C1 (stereo partly shown) [Compound 344] . Output its pIC50 only.
Response line: > 7.00

Prompt line: Retrieve pIC50 measured for Cc1ccc2cc1CNC(=O)[C@H](CCc1ccccc1)NC(=O)[C@@H](NS(=O)(=O)CCc1ccccc1)CC(=O)N1CCCC(CCO2)C1 (stereo partly shown) [Compound 217] and print it.
Response line: > 7.00

---

Some molecules, each annotated with its measured pIC50.
# Test system: HT-29 cells
# Protocol Details: CellTiter-Glo luminescent cell viability assay with HT-29 cells (72h incubation)
# Assay type: cell-based, human
# Details: Homo sapiens, HT-29, HT29 cells, read-out: CTG HT29
pIC50: −log10 of the molar value.

The examples below pair each entry with its known result.
COC(C(=O)N[C@H]1CC(=O)N2CCCC(CCOc3ccc(C)c(c3)CNC(=O)[C@H](CCc3ccccc3)NC1=O)C2)c1ccc(NC(C)=O)cc1 (stereo partly drawn): > 7.00
Cc1ccc2cc1CNC(=O)[C@H](CCc1ccccc1)NC(=O)[C@@H](NC(=O)C1CCNCC1(F)F)CC(=O)N1CCCC(CCO2)C1 (stereo partly drawn): > 7.00
CC(=O)N[C@H]1CC(=O)N2CCCC(COc3ccc(C)c(c3)CNC(=O)[C@H](CCc3ccccc3)NC1=O)C2 (stereo partly drawn): 6.30 to 7.00
COC(C(=O)N[C@H]1CC(=O)N2CCCC(CCOc3ccc(C)c(c3)CNC(=O)[C@H](CCc3ccccc3)NC1=O)C2)c1ccc(N)cc1 (stereo partly drawn): > 7.00
Cc1cc2cc(c1C)CNC(=O)[C@H](Cc1c[nH]c3ccccc13)NC(=O)CCC(=O)N1CCCC(CCO2)C1 (stereo partly drawn): 6.30 to 7.00

Please examine the following record next.
Prompt line: Provide pIC50 value for the following molecule: Cc1ccc2cc1CNC(=O)C(CCc1ccncc1)NC(=O)[C@@H](NC(=O)Cc1ccc(N)cc1F)CC(=O)N1CCCC(CCO2)C1 (stereo partly drawn)
Response line: > 7.00
